Origin of values: ChEMBL document CHEMBL1139153

Kindly state Papp A→B for each of the entries shown.
Test: Apparent permeability from apical to basolateral side of human Caco-2 cell membrane
Type: ADME, cell-based
Report the value in ×10⁻⁶ cm/s with no unit label.

What value of Papp A→B has been reported for the following molecule? NC(=O)[C@H](Cc1ccccc1)NC(=O)[C@H](Cc1ccccc1)NC(=O)[C@@H]1CCCN1C(=O)[C@@H](N)Cc1ccc(O)cc1 [ENDOMORPHIN 2]
0.0643

Note, next up: Cc1cc(O)cc(C)c1CC(N)C(=O)NCCCc1nc(O)c(CCCNC(=O)C(N)Cc2c(C)cc(O)cc2C)nc1C (centres undefined)
0.547

Note, next up: Cc1cc(O)cc(C)c1CC(N)C(=O)NCCCCc1nc(O)c(CCCCNC(=O)C(N)Cc2c(C)cc(O)cc2C)nc1C (centres undefined)
0.845

Note, next up: Cc1cc(O)cc(C)c1CC(N)C(=O)NCCCCNC(=O)C(N)Cc1c(C)cc(O)cc1C (centres undefined)
0.139
